Biological target: PRC2 containing wt EZH2 (Homo sapiens (Human))
Assay: EZH2 biochemical assay (IC50), 3H-SAM incorporation into biotinylated H3 peptide
Settings: EZH2 (IC50), 30 pM PRC2 containing wt EZH2; 3-5 h pre-incubation
pIC50: −log10 of the molar value.
Quantity Kind: pIC50

Solved cases below.
CSc1cc(C)[nH]c(=O)c1CNC(=O)c1c(C)n([C@H](C)C2OCC(N3CC(F)(F)C3)CO2)c2ccccc12 (single isomer, unassigned) [85 (isomer 2)] :: 8.30 to 9.30
CSc1cc(C)[nH]c(=O)c1CNC(=O)c1c(C)n([C@H](C)C2CN(CC(F)(F)F)C2)c2ccccc12 :: 8.30 to 9.30
COC1CN(C2CCC([C@@H](C)n3c(C)c(C(=O)NCc4c(SC)cc(C)[nH]c4=O)c4cncnc43)CC2)C1 (stereo partly shown) :: > 9.30
CSc1cc(C)[nH]c(=O)c1CNC(=O)c1c(C)n([C@H](C)C2CCN(CC(F)F)CC2)c2ncccc12 :: > 9.30
CSc1cc(C)[nH]c(=O)c1CNC(=O)c1c(C)n([C@H](C)C2CCC(N3CCOCC3)CC2)c2ccccc12 (single isomer, unassigned) [75 (isomer 1)] :: > 9.30

input: Quick check: pIC50 of COC[C@@H](C)n1c(C)c(C(=O)NCc2c(SC)cc(C)[nH]c2=O)c2ccccc21 ?
output: > 9.30

input: Quick check: pIC50 of COC1CCC([C@@H](C)n2c(C)c(C(=O)NCc3c(SC)cc(C)[nH]c3=O)c3ccccc32)CC1 (single isomer, unassigned) [18 (isomer 1)] ?
output: > 9.30

input: Quick check: pIC50 of CSc1cc(C)[nH]c(=O)c1CNC(=O)c1c(C)n([C@H](C)C2CCN(CCO)CC2)c2ccccc12 ?
output: > 9.30

input: Quick check: pIC50 of CSc1cc(C)[nH]c(=O)c1CNC(=O)c1c(C)n([C@H](C)[C@H]2CCN(C3CC3)C[C@H]2F)c2ccccc12 ?
output: > 9.30

input: Quick check: pIC50 of CSc1cc(C)[nH]c(=O)c1CNC(=O)c1c(C)n([C@H](C)[C@H]2CCN(C3CC3)CC2(F)F)c2ncccc12 (single isomer, unassigned) [70 (isomer 1)] ?
output: > 9.30

input: Quick check: pIC50 of CSc1cc(C)[nH]c(=O)c1CNC(=O)c1c(C)n([C@H](C)C2CCC(OC3COC3)CC2)c2ccccc12 (single isomer, unassigned) [137 (isomer 1)] ?
output: > 9.30

input: Quick check: pIC50 of CSc1cc(C)[nH]c(=O)c1CNC(=O)c1c(C)n([C@H](C)[C@H]2CCN(C)C[C@@H]2F)c2ccccc12 ?
output: > 9.30

input: Quick check: pIC50 of CSc1cc(C)[nH]c(=O)c1CNC(=O)c1c(C)n([C@H](C)C2OCC(N3CC(C)(C)C3)CO2)c2ccccc12 (single isomer, unassigned) [78 (isomer 2)] ?
output: < 8.30

====

Target: UniProt:Q15910
Test: EZH2 biochemical assay (IC50), 3H-SAM incorporation into biotinylated H3 peptide
Settings: 30 pM PRC2 containing wt EZH2; 3-5 h pre-incubation; read-out: EZH2 (IC50)
pIC50: −log10 of the molar value.
Quantity Kind: pIC50

CSc1cc(C)[nH]c(=O)c1CNC(=O)c1c(C)n([C@H](C)[C@H]2CC[C@H](NC3(C)COC3)CC2)c2ccccc12 (single isomer, unassigned) [1 (isomer 1)] :: > 9.30

input: Quick check: pIC50 of CSc1cc(C)[nH]c(=O)c1CNC(=O)c1c(C)n([C@H](C)C2CCC(N3CCCC3=O)CC2)c2ccccc12 (stereo partly drawn) ?
output: > 9.30

input: Quick check: pIC50 of CNC1COC([C@@H](C)n2c(C)c(C(=O)NCc3c(SC)cc(C)[nH]c3=O)c3ccccc32)OC1 (stereo partly drawn) ?
output: > 9.30

input: Quick check: pIC50 of CSc1cc(C)[nH]c(=O)c1CNC(=O)c1c(C)n([C@H](C)C2CCC(N3CC(n4ccnn4)C3)CC2)c2ccccc12 (stereo partly drawn) ?
output: > 9.30

input: Quick check: pIC50 of COC1CN(C2CCC([C@@H](C)n3c(C)c(C(=O)NCc4c(SC)cc(C)[nH]c4=O)c4cc(Cl)cnc43)CC2)C1 (single isomer, unassigned) [106 (isomer 2)] ?
output: > 9.30

input: Quick check: pIC50 of CSc1cc(C)[nH]c(=O)c1CNC(=O)c1c(C)n([C@H](C)C2CCC(N3CC(OC(F)(F)F)C3)CC2)c2ccccc12 (single isomer, unassigned) [21 (isomer 2)] ?
output: > 9.30

====

Reported IC50 values for the following compounds.
Target: PRC2 containing wt EZH2 (Homo sapiens (Human))
Assay: EZH2 biochemical assay (IC50), 3H-SAM incorporation into biotinylated H3 peptide
Settings: EZH2 (IC50), 30 pM PRC2 containing wt EZH2; 3-5 h pre-incubation

Solved cases below.
CSc1cc(C)[nH]c(=O)c1CNC(=O)c1c(C)n([C@H](C)C2CCN(C)C[C@H]2F)c2ccccc12 (stereo partly drawn) :: < 0.5 nM
CSc1cc(C)[nH]c(=O)c1CNC(=O)c1c(C)n([C@H](C)C2CCC(N3CC(F)C3)CC2)c2cc(F)ccc12 (stereo partly drawn) :: < 0.5 nM
CSc1cc(C)[nH]c(=O)c1CNC(=O)c1c(C)n([C@H](C)C2CCN(C3COC3)CC2)c2ccccc12 :: < 0.5 nM
CSc1cc(C)[nH]c(=O)c1CNC(=O)c1c(C)n([C@H](C)C2CCC(O)CC2)c2ncc(Cl)cc12 (single isomer, unassigned) [53 (isomer 1)] :: < 0.5 nM

input: Quick check: IC50 of CSc1cc(C)[nH]c(=O)c1CNC(=O)c1c(C)n([C@H](C)C2OCC(N3CC(C)(C)C3)CO2)c2ccccc12 (single isomer, unassigned) [78 (isomer 1)] ?
output: < 0.5 nM

input: Quick check: IC50 of CSc1cc(C)[nH]c(=O)c1CNC(=O)c1c(C)n([C@H](C)C2CCC(N3CC34COC4)CC2)c2ncccc12 (single isomer, unassigned) [139 (isomer 2)] ?
output: 0.5 to 5 nM

====

Reported EC50 values for the following compounds.
Test system: H3K27me3 mark in HeLa cells (EZH2)
Test: H3K27me3 Alpha Hela Assay (AlphaLISA)
Type: cell-based
Settings: HeLa cells, 72 hrs; read-out: EZH2 Cell H3K27me3 Alpha HeLa (EC50 K27me3)
Experimental: H3K27me3 Alpha Hela Assay (AlphaLISA). Ten different doses of each test compound (in a series of 3-fold dilutions) were plated in duplicate 384-well tissue culture treated plates (Catalog #6007680; Perkin Elmer, Waltham, Mass.). Hela cells grown in culture were trypsinized and counted using a Countess® cell counter (Catalog #C10281; Life Technologies, Grand Island, N.Y.). […] Data from both assays was analyzed using Genedata (Basel, Switzerland). […] Readout of DMSO wells were used to normalize the data. […]

Solved cases below.
CSc1cc(C)[nH]c(=O)c1CNC(=O)c1c(C)n([C@H](C)C2CCC(O)CC2)c2ccccc12 (single isomer, unassigned) [19 (isomer 2)] :: < 10 nM
CO[C@@H]1CN(C2CCC([C@@H](C)n3c(C)c(C(=O)NCc4c(SC)cc(C)[nH]c4=O)c4cccnc43)CC2)C[C@H]1F (single isomer, unassigned) [104 (isomer 1)] :: 10 to 100 nM
CSc1cc(C)[nH]c(=O)c1CNC(=O)c1c(C)n([C@H](C)C2OCC(N(C)C)CO2)c2ccccc12 (single isomer, unassigned) [7 (isomer 1)] :: > 100 nM
CSc1cc(C)[nH]c(=O)c1CNC(=O)c1c(C)n([C@H](C)C2CCC(N3CC(F)C3)CC2)c2ncc(F)cc12 (single isomer, unassigned) [84 (isomer 2)] :: 10 to 100 nM

Proceed to the following item.
input: Quick check: EC50 of CSc1cc(C)[nH]c(=O)c1CNC(=O)c1c(C)n([C@H](C)[C@H]2OC[C@@H](N3CCC34COC4)CO2)c2ccccc12 (single isomer, unassigned; isomer 1) [150 (isomer 1)] ?
output: > 100 nM

====

Molecular target: PRC2 containing wt EZH2 (Homo sapiens (Human), UniProt Q15910)
Sequence (Q15910 whole entry): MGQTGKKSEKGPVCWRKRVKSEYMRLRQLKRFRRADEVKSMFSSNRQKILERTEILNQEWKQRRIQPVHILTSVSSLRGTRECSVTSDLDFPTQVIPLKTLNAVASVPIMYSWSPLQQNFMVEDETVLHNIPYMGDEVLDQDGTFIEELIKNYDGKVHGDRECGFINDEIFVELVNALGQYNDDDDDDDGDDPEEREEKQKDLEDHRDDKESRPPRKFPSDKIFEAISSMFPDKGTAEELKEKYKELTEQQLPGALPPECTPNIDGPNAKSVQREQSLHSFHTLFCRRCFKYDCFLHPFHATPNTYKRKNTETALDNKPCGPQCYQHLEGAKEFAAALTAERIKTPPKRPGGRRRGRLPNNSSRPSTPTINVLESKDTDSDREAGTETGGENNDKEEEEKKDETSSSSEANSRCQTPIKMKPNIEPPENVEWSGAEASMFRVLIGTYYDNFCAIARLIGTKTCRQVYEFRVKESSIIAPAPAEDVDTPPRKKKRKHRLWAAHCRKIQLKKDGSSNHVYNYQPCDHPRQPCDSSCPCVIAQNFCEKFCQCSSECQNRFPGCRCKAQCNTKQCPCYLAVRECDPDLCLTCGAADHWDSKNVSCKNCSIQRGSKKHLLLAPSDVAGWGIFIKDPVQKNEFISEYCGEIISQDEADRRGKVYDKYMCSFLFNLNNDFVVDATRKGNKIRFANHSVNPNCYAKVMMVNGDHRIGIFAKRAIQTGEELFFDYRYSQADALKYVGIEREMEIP
Sequence (O75530 whole entry partner): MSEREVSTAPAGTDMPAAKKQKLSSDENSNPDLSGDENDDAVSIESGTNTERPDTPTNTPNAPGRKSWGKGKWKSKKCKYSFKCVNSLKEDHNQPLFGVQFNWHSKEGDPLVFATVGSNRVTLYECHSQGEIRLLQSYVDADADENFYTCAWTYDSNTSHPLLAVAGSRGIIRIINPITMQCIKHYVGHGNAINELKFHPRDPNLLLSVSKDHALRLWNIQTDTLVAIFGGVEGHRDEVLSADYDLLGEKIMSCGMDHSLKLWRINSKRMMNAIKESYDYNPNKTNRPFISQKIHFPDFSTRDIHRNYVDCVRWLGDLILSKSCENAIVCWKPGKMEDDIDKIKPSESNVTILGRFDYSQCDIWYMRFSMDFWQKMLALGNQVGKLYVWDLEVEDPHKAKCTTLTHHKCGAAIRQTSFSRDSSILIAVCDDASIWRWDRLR
Sequence (Q15022 whole entry partner): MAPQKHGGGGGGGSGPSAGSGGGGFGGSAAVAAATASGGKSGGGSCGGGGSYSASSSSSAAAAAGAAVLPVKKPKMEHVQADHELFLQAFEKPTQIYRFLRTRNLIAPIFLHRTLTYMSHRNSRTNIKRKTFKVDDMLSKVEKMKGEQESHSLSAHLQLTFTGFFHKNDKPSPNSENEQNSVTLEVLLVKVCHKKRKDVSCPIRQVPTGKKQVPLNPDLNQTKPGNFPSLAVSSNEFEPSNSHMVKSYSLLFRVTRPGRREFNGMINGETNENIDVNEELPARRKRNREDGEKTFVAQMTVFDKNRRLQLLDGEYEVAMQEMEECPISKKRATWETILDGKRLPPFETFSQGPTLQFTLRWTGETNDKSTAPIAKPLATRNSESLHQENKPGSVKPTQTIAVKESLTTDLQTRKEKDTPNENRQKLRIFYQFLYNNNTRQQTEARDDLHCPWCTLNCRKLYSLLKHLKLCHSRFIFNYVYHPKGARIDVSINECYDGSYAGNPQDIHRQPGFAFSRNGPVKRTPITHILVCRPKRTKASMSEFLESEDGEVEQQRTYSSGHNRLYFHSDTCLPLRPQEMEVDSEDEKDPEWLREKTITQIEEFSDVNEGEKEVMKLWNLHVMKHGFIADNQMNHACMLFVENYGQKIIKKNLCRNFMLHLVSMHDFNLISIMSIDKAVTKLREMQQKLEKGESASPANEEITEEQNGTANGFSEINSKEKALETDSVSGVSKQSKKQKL
Sequence (Q09028 whole entry partner): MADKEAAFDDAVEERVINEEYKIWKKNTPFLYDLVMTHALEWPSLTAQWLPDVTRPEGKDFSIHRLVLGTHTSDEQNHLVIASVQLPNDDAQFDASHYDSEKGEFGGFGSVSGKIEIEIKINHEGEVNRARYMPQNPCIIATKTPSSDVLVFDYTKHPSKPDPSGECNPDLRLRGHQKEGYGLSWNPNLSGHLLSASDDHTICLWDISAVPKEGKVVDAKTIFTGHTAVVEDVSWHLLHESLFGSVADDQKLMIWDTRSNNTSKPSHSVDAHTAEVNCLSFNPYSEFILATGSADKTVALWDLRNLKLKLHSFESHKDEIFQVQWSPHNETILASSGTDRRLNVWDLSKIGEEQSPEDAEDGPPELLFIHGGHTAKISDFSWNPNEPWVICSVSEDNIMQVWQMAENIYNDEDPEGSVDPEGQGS
Sequence (Q6ZN18 whole entry partner): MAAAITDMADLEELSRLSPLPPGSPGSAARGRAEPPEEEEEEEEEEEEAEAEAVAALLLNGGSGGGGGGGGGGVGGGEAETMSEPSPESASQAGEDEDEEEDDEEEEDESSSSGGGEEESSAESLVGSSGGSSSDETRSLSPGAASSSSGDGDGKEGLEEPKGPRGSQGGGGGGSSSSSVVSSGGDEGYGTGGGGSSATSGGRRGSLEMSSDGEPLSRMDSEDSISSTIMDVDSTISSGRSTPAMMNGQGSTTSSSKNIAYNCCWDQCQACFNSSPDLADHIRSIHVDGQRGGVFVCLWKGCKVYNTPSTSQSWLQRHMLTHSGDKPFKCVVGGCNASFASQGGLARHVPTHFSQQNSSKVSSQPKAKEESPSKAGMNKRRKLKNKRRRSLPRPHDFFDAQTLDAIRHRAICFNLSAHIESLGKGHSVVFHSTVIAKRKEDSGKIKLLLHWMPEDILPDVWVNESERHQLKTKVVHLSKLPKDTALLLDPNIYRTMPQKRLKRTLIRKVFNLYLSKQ
Test: EZH2 residence time assay (100-fold dilution of pre-formed enzyme-inhibitor complex)
Type: biochemical
Quantity Kind: residence time

CSc1cc(C)[nH]c(=O)c1CNC(=O)c1c(C)n([C@H](C)C2CCC(NC3(C(F)(F)F)COC3)CC2)c2ccccc12 (stereo partly drawn) :: 300 to 2100 min
CSc1cc(C)[nH]c(=O)c1CNC(=O)c1c(C)n([C@H](C)C2CCC(NC3(C)CCOC3)CC2)c2ccccc12 (single isomer, unassigned) [drawing 269] :: > 2100 min

Proceed to the following item.
input: Reported residence time for PRC2 containing wt EZH2 (Homo sapiens (Human), UniProt Q15910), given Cc1cc(Cl)c(CNC(=O)c2c(C)n([C@H](C)C3CCOCC3)c3ccccc23)c(=O)[nH]1 ?
output: < 30 min
